MEASURED TARGET: Luciferin 4-monooxygenase (Photinus pyralis)
EXPERIMENTAL PROTOCOL: qHTS assay to identify small molecule inhibitors of firefly luciferase (AID 1224835); also: nearly all actives have a fitted effect of over 25% in size
CONDITION DESCRIPTION: purified P. pyralis luciferase, luminescence inhibition; series mostly up to 115 µM
Records with an inconclusive call do not appear. Active and inactive are the calls of the source. Calls follow the shape of the dose curve; as a rule, active = well fitted inhibition curve with a large enough effect in the repeat runs; inconclusive = weak or mixed curves; inactive = flat fitted curve, though single readings scatter.
MEASUREMENT LABEL: Potency

1) CC(C)C(=O)OCc1cccc(OC(=O)[C@@H]2N3C(=O)[C@@H](NC(=O)Cc4ccccc4)[C@H]3SC2(C)C)c1: inactive
2) COC(=O)[C@@H]1[C@H]2C[C@H]3c4[nH]c5ccccc5c4CCN3C[C@@H]2CC[C@@H]1O: inactive
3) CCCCCCCCC1CCC(=O)O1 (configuration not stated): inactive
4) O=C1c2ccccc2C(=O)N1CCl: inactive
5) O=S(=O)(O)c1ccc2cc(O)c(S(=O)(=O)O)cc2c1: inactive

Task item: // map C[C@@H](O)[C@H]1C(=O)N2C(C(=O)O)=C(SCCN=CN)C[C@H]12 to recorded Potency (system: Luciferin 4-monooxygenase (Photinus pyralis))
Reply: inactive

Task item: // fetch Luciferin 4-monooxygenase (Photinus pyralis) Potency for COCCOCCOCCOCCOCCO
Reply: inactive

---

MEASURED TARGET: Cytochrome P450 2D6 (Homo sapiens)
EXPERIMENTAL PROTOCOL: Cytochrome P450 Family 2 Subfamily D Member 6 (CYP2D6) small molecule antagonists: luciferase reporter qHTS assay (AID 1671196); also: nearly all actives have a fitted effect of over 50% in size
CONDITION DESCRIPTION: P450-Glo CYP2D6 enzyme assay, luciferin luminescence, 1 h; series mostly up to 115 µM
Results filed as inconclusive are left out. Activity calls are given as the source filed them. Calls come from the whole dose curve; as a rule, active = well fitted inhibition curve with a large enough effect in the repeat runs; inconclusive = weak or mixed curves; inactive = no such curve, though single readings can be large or run the other way.
Your reply should match one of these outcome classes. active, inactive

Field: example entries. Status: answers known.
1. COc1ccc(-c2cc(=O)c3c(O)cc(O[C@@H]4O[C@H](CO[C@@H]5O[C@@H](C)[C@H](O)[C@@H](O)[C@H]5O)[C@@H](O)[C@H](O)[C@H]4O)cc3o2)cc1O: inactive
2. O=C1CC(c2ccc(Cl)cc2)CC(=O)N1: inactive
3. CCCCCCCCSCC: inactive
4. O=C(OCc1ccccc1)C(=O)OCc1ccccc1: inactive
5. CNS(=O)(=O)CCc1ccc2[nH]cc(C3CCN(C)CC3)c2c1: active

Could you now consider this next compound?
Task item: Called result for On1nnc2ccccc21
Reply: active

---

MEASURED TARGET: Luciferin 4-monooxygenase (Photinus pyralis) (UniProt P08659)
Sequence (P08659 whole entry, looked up): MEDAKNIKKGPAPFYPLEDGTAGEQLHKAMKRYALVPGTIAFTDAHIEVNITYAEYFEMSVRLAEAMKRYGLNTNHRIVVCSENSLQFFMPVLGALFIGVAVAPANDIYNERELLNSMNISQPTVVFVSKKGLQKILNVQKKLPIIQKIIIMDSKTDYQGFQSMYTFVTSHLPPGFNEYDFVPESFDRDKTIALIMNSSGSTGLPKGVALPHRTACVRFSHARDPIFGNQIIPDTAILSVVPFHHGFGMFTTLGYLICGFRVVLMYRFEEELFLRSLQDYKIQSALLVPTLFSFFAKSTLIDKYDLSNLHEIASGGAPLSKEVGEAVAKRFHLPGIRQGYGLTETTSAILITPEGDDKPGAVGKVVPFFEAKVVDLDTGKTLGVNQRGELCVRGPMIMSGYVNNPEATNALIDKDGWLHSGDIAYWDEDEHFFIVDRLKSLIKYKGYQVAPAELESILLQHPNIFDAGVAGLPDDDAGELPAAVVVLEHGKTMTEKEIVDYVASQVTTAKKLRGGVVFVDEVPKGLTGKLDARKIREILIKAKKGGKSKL
EXPERIMENTAL PROTOCOL: qHTS assay to identify small molecule inhibitors of firefly luciferase (AID 1224835); also: nearly all actives have a fitted effect of over 25% in size
CONDITION DESCRIPTION: purified P. pyralis luciferase, luminescence inhibition; series mostly up to 115 µM
Source text: U.S. Tox21 Program National Center for Advancing Translational Sciences [NCATS] NIH Chemical Genomics Center [NCGC] U.S. Environmental Protection Agency [EPA] National Institutes of Environmental Health Sciences [NIEHS] National Toxicology Program [NTP] U.S. Food and Drug Administration [FDA] Tox21 Assay Overview: Firefly (Photinus pyralis) luciferase is one of the most commonly used transcriptional reporters. […]
Records with an inconclusive call do not appear. Activity calls are given as the source filed them. Calls come from the whole dose curve; as a rule, active = well fitted inhibition curve with a large enough effect in the repeat runs; inconclusive = weak or mixed curves; inactive = flat fitted curve, though single readings scatter.
Respond only with the outcome that fits, drawn from active, inactive

1. CCOC(=O)[C@H](CCc1ccccc1)N[C@@H](C)C(=O)N1C(=O)N(C)C[C@H]1C(=O)O: inactive

Task item: Each compound tested received a call. Report the one for FC(F)(F)c1ccccc1-n1ccnc1 .
Reply: inactive

Task item: # lookup: test call for CC1=CCC(C(C)C)=CC1
Reply: inactive

Task item: Tell me the recorded outcome of this test for Cc1c(I)c(=O)n(-c2ccccc2)n1C .
Reply: inactive

Task item: Could you kindly confirm the outcome this assay logged for NCCS ?
Reply: inactive
